tested on: PC-3 PIP tumor-bearing mice; assay: Biodistribution study in SCID mice bearing PC3-PIP tumor; format: in vivo, mouse; details: PC3 PIP tumor-bearing mice, 4 h
Examples of compounds with documented T/K at 4 h (tumor uptake/kidney uptake) follow.

Examples with their reported T/K at 4 h (tumor uptake/kidney uptake) follow.
compound: O=C(O)CC[C@H](NC(=O)N[C@@H](CCCCNC(=O)[C@H](Cc1ccc2ccccc2c1)NC(=O)[C@H]1CC[C@H](CNC(=O)[C@H](CCCCNC(=O)CN2CCN(CC(=O)O)CCN(CC(=O)O)CCN(CC(=O)O)CC2)NC(=O)CCCOC(=O)CNC(=O)[C@H](CCC(=O)O)NC(=O)CCCc2ccc(I)cc2)CC1)C(=O)O)C(=O)O [Example I-2, 4pIBA-Glu-ESL1-Lys(DOTA)-Trx-2NaI-eKuE]
T/K at 4 h (tumor uptake/kidney uptake): 0.6

compound: O=C(O)CC[C@H](NC(=O)N[C@@H](CCCCNC(=O)[C@H](Cc1ccc2ccccc2c1)NC(=O)[C@H]1CC[C@H](CNC(=O)[C@H](CCCCNC(=O)CCC(=O)NCCSSCCNC(=O)CN2CCN(CC(=O)O)CCN(CC(=O)O)CCN(CC(=O)O)CC2)NC(=O)[C@H](CCC(=O)O)NC(=O)CCCc2ccc(I)cc2)CC1)C(=O)O)C(=O)O [Example I-4, 4pIBA-Glu-Lys(-SSL1-DOTA)-Trx-2NaI-eKuE]
T/K at 4 h (tumor uptake/kidney uptake): 0.1

compound: O=C(O)CC[C@H](NC(=O)N[C@@H](CCCCNC(=O)[C@H](Cc1ccc2ccccc2c1)NC(=O)[C@H]1CC[C@H](CNC(=O)COCCOCCNC(=O)[C@H](CCCCNC(=O)CCCOC(=O)CNC(=O)CN2CCN(CC(=O)O)CCN(CC(=O)O)CCN(CC(=O)O)CC2)NC(=O)[C@H](CCCCNC(=O)COCCOCCNC(=O)COCCOCCNC(=O)[C@H](CCC(=O)O)NC(=O)CCCc2ccc(I)cc2)NC(=O)COCCOCCNC(=O)COCCOCCNC(=O)[C@H](CCC(=O)O)NC(=O)CCCc2ccc(I)cc2)CC1)C(=O)O)C(=O)O [Example I-7]
T/K at 4 h (tumor uptake/kidney uptake): 0.7

compound: O=C(O)CC[C@H](NC(=O)N[C@@H](CCCCNC(=O)[C@H](Cc1ccc2ccccc2c1)NC(=O)[C@H]1CC[C@H](CNC(=O)[C@H](CCCCNC(=O)CN2CCN(CC(=O)O)CCN(CC(=O)O)CCN(CC(=O)O)CC2)NC(=O)[C@H](CCC(=O)O)NC(=O)CCCc2ccc(I)cc2)CC1)C(=O)O)C(=O)O [Example C-2, 4pIBA-Glu-Lys(DOTA)-Trx-2NaI-eKuE, reference compound]
T/K at 4 h (tumor uptake/kidney uptake): 0.3

compound: O=C(O)CC[C@H](NC(=O)N[C@@H](CCCCNC(=O)[C@H](Cc1ccc2ccccc2c1)NC(=O)[C@H]1CC[C@H](CNC(=O)[C@H](CCCCNC(=O)CCCOC(=O)CNC(=O)CN2CCN(CC(=O)O)CCN(CC(=O)O)CCN(CC(=O)O)CC2)NC(=O)[C@H](CCC(=O)O)NC(=O)CCCc2ccc(I)cc2)CC1)C(=O)O)C(=O)O [Example I-3, 4pIBA-Glu-Lys(-ESL1-DOTA)-Trx-2NaI-eKuE]
T/K at 4 h (tumor uptake/kidney uptake): 0.3

Could you now look at the following compound, please?
Query block: Under PC-3 PIP tumor-bearing mice: T/K at 4 h (tumor uptake/kidney uptake) value of O=C(O)CC[C@H](NC(=O)N[C@@H](CCCCNC(=O)[C@H](Cc1ccc2ccccc2c1)NC(=O)C1CCC(CNC(=O)CN2CCN(CC(=O)O)CCN(CC(=O)O)CCN(CC(=O)O)CC2)CC1)C(=O)O)C(=O)O (stereo partly drawn) [Example C-1, reference compound] ?
Result block: 7.0
